Quick reference for IC50 among some compounds
- target-system: AHR (Homo sapiens, UniProt P35869)
- Construct: U87 MG glioblastoma cells (ATCC #HTB-14) endogenously expressing AHR; endogenous in cells; host or cells: U87 MG glioblastoma cells (ATCC #HTB-14)
- Sequence (P35869 11-848): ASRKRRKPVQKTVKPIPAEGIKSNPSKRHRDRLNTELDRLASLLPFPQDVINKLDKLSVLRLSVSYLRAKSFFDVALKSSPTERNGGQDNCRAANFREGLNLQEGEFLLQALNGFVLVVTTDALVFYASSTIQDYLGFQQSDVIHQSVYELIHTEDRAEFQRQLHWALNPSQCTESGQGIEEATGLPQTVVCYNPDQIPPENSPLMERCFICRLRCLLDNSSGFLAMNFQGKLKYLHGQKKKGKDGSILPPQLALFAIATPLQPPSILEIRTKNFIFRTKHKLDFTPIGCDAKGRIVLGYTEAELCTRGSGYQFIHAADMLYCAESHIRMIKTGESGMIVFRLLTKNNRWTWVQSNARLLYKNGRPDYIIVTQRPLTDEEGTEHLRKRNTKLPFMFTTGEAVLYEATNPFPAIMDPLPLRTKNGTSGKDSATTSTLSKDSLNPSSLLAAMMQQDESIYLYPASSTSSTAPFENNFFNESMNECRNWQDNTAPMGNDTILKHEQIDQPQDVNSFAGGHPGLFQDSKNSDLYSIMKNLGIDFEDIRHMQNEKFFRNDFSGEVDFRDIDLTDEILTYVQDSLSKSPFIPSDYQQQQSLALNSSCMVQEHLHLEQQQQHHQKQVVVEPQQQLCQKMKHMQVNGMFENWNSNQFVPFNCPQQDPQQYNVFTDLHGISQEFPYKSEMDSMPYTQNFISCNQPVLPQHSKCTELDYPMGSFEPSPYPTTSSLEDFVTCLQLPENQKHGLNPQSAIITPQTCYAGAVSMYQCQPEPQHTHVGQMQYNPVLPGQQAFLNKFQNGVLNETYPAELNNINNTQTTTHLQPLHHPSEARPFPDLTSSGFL
- procedure-text: In vitro assay 1: antagonism in human cell line (AHR transactivation, firefly luciferase reporter, kynurenic acid prestimulated)
- Type: cell-based
- measurement-context: AHR Antagonism Human IC50 [M]
Your answer is read as M, so omit the unit and give the number.

// below: answered compounds
CCCNC(=O)[C@@H](C)Nc1nc2ccccc2c2nc(-c3ccc(S(C)(=O)=O)cc3)nn12 [Example 439] = 4.52e-08
COc1cccc(-c2nc3c4ccccc4nc(NC4CCCNC4=O)n3n2)c1 (stereo not shown) [Example 77] = 6.52e-08
COc1ccc(-c2nc3c4ccccc4nc(NC4CCCCCNC4=O)n3n2)cc1 (stereo not shown) [Example 433] = 1.64e-09
COc1ccc2c(c1)nc(N[C@@H]1CCCCNC1=O)n1nc(-c3cnn(C)c3)nc21 [Example 550] = 5.35e-06
COc1cccc(-c2nc3c4cc(F)ccc4nc(N[C@@H]4CCCCNC4=O)n3n2)c1 [Example 159] = 1.03e-09
CC[C@@H](Nc1nc2ccccc2c2nc(-c3cc(F)ccc3OC(F)(F)F)nn12)C(N)=O [Example 496] = 4.66e-08

For CCc1nn(C2CC2)cc1-c1nc2c3cccc(C(F)(F)F)c3nc(N[C@@H]3CCCCNC3=O)n2n1 [Example 749] , what is its reported IC50?
1.54e-09

For Cn1cc(-c2nc3c4c(Cl)cccc4nc(N[C@@H]4CCCCNC4=O)n3n2)cn1 [Example 169] , what is its reported IC50?
7.27e-09

----------
- target-system: AHR (Homo sapiens, UniProt P35869)
- Construct: U87 MG glioblastoma cells (ATCC #HTB-14) endogenously expressing AHR; endogenous in cells; host or cells: U87 MG glioblastoma cells (ATCC #HTB-14)
- Sequence (P35869 11-848): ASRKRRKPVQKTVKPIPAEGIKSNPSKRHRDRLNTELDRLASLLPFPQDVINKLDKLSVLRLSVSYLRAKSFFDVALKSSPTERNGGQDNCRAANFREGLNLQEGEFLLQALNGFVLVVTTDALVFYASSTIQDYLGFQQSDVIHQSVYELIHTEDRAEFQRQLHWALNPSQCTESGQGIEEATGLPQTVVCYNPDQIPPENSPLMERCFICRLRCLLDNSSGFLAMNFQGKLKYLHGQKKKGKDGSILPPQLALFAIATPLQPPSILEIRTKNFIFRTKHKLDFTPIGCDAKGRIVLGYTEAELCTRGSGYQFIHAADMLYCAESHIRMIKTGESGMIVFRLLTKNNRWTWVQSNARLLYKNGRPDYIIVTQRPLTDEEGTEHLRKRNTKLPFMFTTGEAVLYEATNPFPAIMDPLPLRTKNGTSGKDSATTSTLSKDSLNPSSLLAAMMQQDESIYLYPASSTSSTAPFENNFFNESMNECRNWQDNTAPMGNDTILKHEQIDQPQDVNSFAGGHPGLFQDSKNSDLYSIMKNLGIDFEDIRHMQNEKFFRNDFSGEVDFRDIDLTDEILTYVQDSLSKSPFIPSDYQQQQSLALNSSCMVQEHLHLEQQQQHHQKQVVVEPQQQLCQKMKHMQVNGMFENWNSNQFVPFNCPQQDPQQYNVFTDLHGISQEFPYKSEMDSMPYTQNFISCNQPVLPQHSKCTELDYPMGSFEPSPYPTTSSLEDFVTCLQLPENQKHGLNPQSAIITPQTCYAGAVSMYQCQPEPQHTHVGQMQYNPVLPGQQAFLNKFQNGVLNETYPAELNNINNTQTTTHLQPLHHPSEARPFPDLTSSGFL
- procedure-text: In vitro assay 1: antagonism in human cell line (AHR transactivation, firefly luciferase reporter, kynurenic acid prestimulated)
- Format: cell-based
- measurement-context: AHR Antagonism Human IC50 [M]
Quick reference for IC50 among some compounds
Your answer is read as M, so omit the unit and give the number.

CCNC(=O)C(CC)Nc1nc2ccccc2c2nc(-c3cccc(OC(F)(F)F)c3)nn12 (single isomer, unassigned) [Example 320] = 1.21e-06
CC[C@@H](Nc1nc2ccccc2c2nc(-c3cccc(Br)c3)nn12)C(N)=O = 9.27e-08
CC(C)(C)n1nccc1-c1nc2c3ccccc3nc(N[C@@H]3CCCCNC3=O)n2n1 = 1.12e-07
COc1cccc(-c2nc3c4c(C)cccc4nc(NC4CCCNC4=O)n3n2)c1 (centres unmarked) = 1.27e-07

Okay, now this compound:
Hi! What's the reported IC50 for CCCCC(Nc1nc2ccccc2c2nc(-c3cccc(OC(F)(F)F)c3)nn12)C(N)=O (single isomer, unassigned) on AHR (Homo sapiens, UniProt P35869)?
2.02e-08

----------
- target-system: AHR (Homo sapiens, UniProt P35869)
- Construct: U87 MG glioblastoma cells (ATCC #HTB-14) endogenously expressing AHR; endogenous in cells; host or cells: U87 MG glioblastoma cells (ATCC #HTB-14)
- procedure-text: In vitro assay 1: antagonism in human cell line (AHR transactivation, firefly luciferase reporter, kynurenic acid prestimulated)
- Type: cell-based
- measurement-context: AHR Antagonism Human IC50 [M], firefly luciferase reporter
Quick reference for IC50 among some compounds
Your answer is read as M, so omit the unit and give the number.

// below: answered compounds
CC(C)n1cc(-c2nc3c4cccc(Br)c4nc(N[C@H]4CNCCNC4=O)n3n2)cn1 = 3.84e-08
COc1ccc(-c2nc3c4cccc(Br)c4nc(N[C@H](C)C(=O)N4CCO[C@H](C)C4)n3n2)cc1 = 9.93e-10
CCCNC(=O)[C@@H](CC)Nc1nc2c(Br)cccc2c2nc(-c3ccc(Cl)cc3OC(F)(F)F)nn12 = 3.57e-09

Hi! What's the reported IC50 for "COc1ccc(-c2nc3c4ccccc4nc(N[C@H](C)C(=O)NCCN4CCN(C(=O)OC(C)(C)C)CC4)n3n2)cc1" on AHR (Homo sapiens, UniProt P35869)?
6.66e-09

Hi! What's the reported IC50 for "CCOC(=O)[C@@H](C)Nc1nc2c(Br)cccc2c2nc(-c3cnn(C)c3)nn12" on AHR (Homo sapiens, UniProt P35869)?
5.75e-08

Hi! What's the reported IC50 for "CC(C)n1cc(-c2nc3c4cccc(Cl)c4nc(N[C@@H]4CCCCNC4=O)n3n2)cn1" on AHR (Homo sapiens, UniProt P35869)?
5.24e-10

Hi! What's the reported IC50 for CNCCNC(=O)[C@@H](C)Nc1nc2c(Br)cccc2c2nc(-c3cnn(C)c3)nn12 [Example 989] on AHR (Homo sapiens, UniProt P35869)?
5.18e-07

Hi! What's the reported IC50 for "CCSc1cccc2c1nc(N[C@@H]1CNCCNC1=O)n1nc(-c3ccc(OC)cc3)nc21" on AHR (Homo sapiens, UniProt P35869)?
1.19e-08

Hi! What's the reported IC50 for "CCCCNC(=O)[C@@H](CC)Nc1nc2c(Br)cccc2c2nc(-c3ccc(Cl)cc3OC(F)F)nn12" on AHR (Homo sapiens, UniProt P35869)?
6.42e-09
